Target: Aβ42 (Homo sapiens, UniProt P05067)
Sequence (P05067 672-713): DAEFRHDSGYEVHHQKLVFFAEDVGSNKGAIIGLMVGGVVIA
Experiment: Th-T (thioflavin-T) assay of Aβ42 aggregation
Type: biochemical
Details: column suffix _50; reading M101
measured.parameter: Fig. 7a Th-T reading, mean of three wells

{"columns": ["compound", "value"],
 "data": [
  ["C=C1CCC2C(C)(CCC=C(C)C)C(O)CCC2(C)C1Cc1c(OC)oc(CO)c(C)c1=O (centres unmarked)", 1.399],
  ["C=C1CCC2C(C)(CCC=C(C)C)C(O)CCC2(C)C1Cc1c(OC)oc(CO)c(C(=O)OC)c1=O (centres unmarked)", 0.4707],
  ["C=C1CCC2C(C)(CCC=C(C)C)C(O)CCC2(C)C1Cc1c(OC)oc(C)c(C(=O)OC)c1=O (centres unmarked)", 1.408],
  ["C=C1CC[C@@H]2[C@](C)(CC[C@H]3O[C@H](C=C(C)C)C[C@@]23C)[C@@H]1Cc1c(OC)oc(CO)c(C)c1=O", 2.093],
  ["C=C1CC[C@@H]2[C@](C)(CC[C@H]3O[C@H](C=C(C)C)C[C@@]23C)[C@@H]1Cc1c(OC)oc(CO)c(C(=O)OC)c1=O", 0.4718]
]}

====

Test system: human immunodeficiency virus-1 (HIV-1)
Assay: anti-HIV MAGI assay
Type: cell-based
Conditions: anti-HIV, MAGI assay; read-out: EC50
pEC50: −log10 of the molar value.
measured.parameter: pEC50

{"columns": ["compound", "value"],
 "data": [
  ["Cc1cn([C@H]2C[C@H](N=[N+]=[N-])[C@@H](CO)O2)c(=O)[nH]c1=O [AZT, reference compound]", 7.53]
]}

====

Molecular target: Aβ42 (Homo sapiens)
Assay: Th-T (thioflavin-T) assay of Aβ42 aggregation
Assay type: biochemical
Conditions: column suffix _20; reading M103
If the reported Fig. 7a Th-T reading, mean of three wells equals or exceeds 2, assign T. If not, assign F.

{"columns": ["compound", "category.label"],
 "data": [
  ["C=C1CCC2C(C)(CCC=C(C)C)C(O)CCC2(C)C1Cc1c(OC)oc(CO)c(C(=O)OC)c1=O (centres unmarked)", "F"],
  ["C=C1CC[C@@H]2[C@](C)(CC[C@H]3O[C@H](C=C(C)C)C[C@@]23C)[C@@H]1Cc1c(OC)oc(CO)c(C(=O)OC)c1=O", "F"],
  ["C=C1CCC2C(C)(CCC=C(C)C)C(O)CCC2(C)C1Cc1c(OC)oc(CO)c(C)c1=O (centres unmarked)", "T"],
  ["C=C1CCC2C(C)(CCC=C(C)C)C(O)CCC2(C)C1Cc1c(OC)oc(C)c(C(=O)OC)c1=O (centres unmarked)", "F"],
  ["C=C1CC[C@@H]2[C@](C)(CC[C@H]3O[C@H](C=C(C)C)C[C@@]23C)[C@@H]1Cc1c(OC)oc(CO)c(C)c1=O", "T"]
]}

====

Listed next: entries and their corresponding Th-T fluorescence, mean of three wells.
Biological target: Aβ42 (Homo sapiens)
Experiment: Th-T (thioflavin-T) assay of Aβ42 aggregation
Assay type: biochemical
Conditions: compound at 20; reading M54 of time course

{"columns": ["molecule", "Th-T fluorescence, mean of three wells"],
 "data": [
  ["C=C1CC[C@@H]2[C@](C)(CC[C@H]3O[C@H](C=C(C)C)C[C@@]23C)[C@@H]1Cc1c(OC)oc(CO)c(C)c1=O", 3.43],
  ["C=C1CCC2C(C)(CCC=C(C)C)C(O)CCC2(C)C1Cc1c(OC)oc(CO)c(C)c1=O (centres unmarked)", 2.151],
  ["C=C1CC[C@@H]2[C@](C)(CC[C@H]3O[C@H](C=C(C)C)C[C@@]23C)[C@@H]1Cc1c(OC)oc(CO)c(C(=O)OC)c1=O", 0.2246],
  ["C=C1CCC2C(C)(CCC=C(C)C)C(O)CCC2(C)C1Cc1c(OC)oc(CO)c(C(=O)OC)c1=O (centres unmarked)", 0.8343],
  ["C=C1CCC2C(C)(CCC=C(C)C)C(O)CCC2(C)C1Cc1c(OC)oc(C)c(C(=O)OC)c1=O (centres unmarked)", 2.178]
]}

====

Let's look at some compounds and their measured Fig. 7a Th-T reading, mean of three wells.
Target: UniProt:P05067
Test: Th-T (thioflavin-T) assay of Aβ42 aggregation
Assay type: biochemical
Conditions: column suffix _20; reading M101
measured.parameter: Fig. 7a Th-T reading, mean of three wells

{"columns": ["compound", "value"],
 "data": [
  ["C=C1CC[C@@H]2[C@](C)(CC[C@H]3O[C@H](C=C(C)C)C[C@@]23C)[C@@H]1Cc1c(OC)oc(CO)c(C)c1=O", 3.25],
  ["C=C1CCC2C(C)(CCC=C(C)C)C(O)CCC2(C)C1Cc1c(OC)oc(CO)c(C)c1=O (centres unmarked)", 2.081],
  ["C=C1CCC2C(C)(CCC=C(C)C)C(O)CCC2(C)C1Cc1c(OC)oc(CO)c(C(=O)OC)c1=O (centres unmarked)", 1.039],
  ["C=C1CCC2C(C)(CCC=C(C)C)C(O)CCC2(C)C1Cc1c(OC)oc(C)c(C(=O)OC)c1=O (centres unmarked)", 1.75],
  ["C=C1CC[C@@H]2[C@](C)(CC[C@H]3O[C@H](C=C(C)C)C[C@@]23C)[C@@H]1Cc1c(OC)oc(CO)c(C(=O)OC)c1=O", 0.9158]
]}

====

Tested on: DL1 cells
Test: cytotoxicity in Drosophila DL1 cells
Format: cell-based
Settings: DL1 cells, 0.2 µM, replicate 2, relative to DMSO 1%

{"columns": ["molecule", "% viability, viability 2 (%)"],
 "data": [
  ["C=C1CCC2C(C)(CCC=C(C)C)C(O)CCC2(C)C1Cc1c(O)c(C)c(C)oc1=O (stereo not shown) [Compound 4]", 231.017],
  ["C=C1CCC2C(C)(CCC=C(C)C)C(O)CCC2(C)C1Cc1c(O)c(C)c(C)oc1=O (stereo not shown) [Compound 9, higginsianin B]", 177.549],
  ["C=C1CCC2C(C)(CCC=C(C)C)C(O)CCC2(C)C1Cc1c(OC)oc(C)c(C)c1=O (stereo not shown) [Compound 15, viridoxin A hydrolysate]", 208.057],
  ["C=C1CCC2C(C)(CCC=C(C)C)C(O)CCC2(C)C1Cc1c(OC)oc(C)c(C)c1=O (stereo not shown) [Compound 11]", 182.283]
]}

====

Target: Aβ42 (Homo sapiens, UniProt P05067)
Assay: Th-T (thioflavin-T) assay of Aβ42 aggregation
Assay type: biochemical
Settings: reading M20; Supplementary Fig. 47 source data
measured.parameter: Th-T fluorescence, mean of three wells

{"columns": ["compound", "value"],
 "data": [
  ["C=C1CCC2C(C)(CC(=O)C=C(C)C)C(O)CCC2(C)C1Cc1c(OC)oc(CO)c(C)c1=O (centres unmarked)", 2.128],
  ["C=C1CC[C@H]2[C@]3(C)C[C@H](C=C(C)C)O[C@H]3CC[C@]2(C)[C@@H]1Cc1c(O)c(C)c(C)oc1=O", 2.193],
  ["C=C1CC[C@H]2[C@]3(C)C[C@@H](C=C(C)C)O[C@H]3CC[C@]2(C)[C@@H]1Cc1c(O)c(C)c(C)oc1=O", 2.312],
  ["CC(C)=CCC/C(C)=C/CC/C(C)=C/CC/C(C)=C/Cc1c(O)c(C)c(C)oc1=O", 2.556],
  ["C=C1CC[C@@H]2[C@](C)(CC[C@H]3O[C@H](C=C(C)C)C[C@@]23C)[C@@H]1Cc1c(O)c(C)c(C)oc1=O", 2.677]
]}

====

Experiment: cytotoxicity in Drosophila l(2)mbn cells
Type: cell-based
Settings: Drosophila, l(2)mbn cells (larval blood cell-derived), 20 µM, replicate 2, relative to DMSO 1%, read-out: % viability, viability 2

{"columns": ["compound", "viability at 20 µM"],
 "data": [
  ["C=C1CCC2C(C)(CCC=C(C)C)C(O)CCC2(C)C1Cc1c(O)c(C)c(C)oc1=O (stereo not drawn)", "3.01%"],
  ["C=C1CCC2C(C)(CC(=O)C=C(C)C)C(O)CCC2(C)C1Cc1c(OC)oc(C)c(C)c1=O (stereo not drawn)", "97.2%"],
  ["C=C1CC[C@H]2[C@]3(C)C[C@H](C=C(C)C)O[C@H]3CC[C@]2(C)[C@@H]1Cc1c(OC)oc(CO)c(C)c1=O", "8.3%"],
  ["C=C1CCC2C(C)(CC(=O)C=C(C)C)C(O)CCC2(C)C1Cc1c(OC)oc(CO)c(C)c1=O (stereo not drawn)", "117%"],
  ["C=C1CCC2C(C)(CCC=C(C)C)C(O)CCC2(C)C1Cc1c(OC)oc(CO)c(C(=O)OC)c1=O (stereo not drawn)", "9.4%"],
  ["C=C1CC[C@H]2[C@]3(C)C[C@H](C=C(C)C)O[C@H]3CC[C@]2(C)[C@@H]1Cc1c(O)c(C)c(C)oc1=O", "7.29%"],
  ["C=C1CCC2C3(C)CC(C=C(C)C)OC3CCC2(C)C1Cc1c(OC)oc(C)c(C)c1=O (stereo not drawn)", "6.4%"],
  ["C=C1CC[C@@H]2[C@](C)(CC[C@H]3O[C@H](C=C(C)C)C[C@@]23C)[C@@H]1Cc1c(O)c(C)c(C)oc1=O", "6.46%"],
  ["C=C1CC[C@H]2[C@]3(C)C[C@H](C=C(C)C)O[C@H]3CC[C@]2(C)[C@@H]1Cc1c(OC)oc(C)c(C)c1=O", "6.04%"]
]}
